Would you mind telling me the reported pKd of each entry?
- TARGET_SYSTEM: BfrB (apo-BfrB) (Pseudomonas aeruginosa (strain ATCC 15692 / DSM 22644 / CIP 104116 / JCM 14847 / LMG 12228 / 1C / PRS 101 / PAO1), UniProt Q9HY79)
- ASSAY_NOTES: Fluorescence polarization measurement of dissociation constant (Kd)
- CONDITIONS_USED: 100 mM potassium phosphate buffer pH 7.6, 1 mM TCEP, 0.5% DMSO; average ± SD
Kindly note that pKd refers to -log10 of the concentration in mol/L and answer with the value alone.

IN: Reported pKd, molecule O=C1NC(=O)c2c(NCc3cccc(Cl)c3O)cccc21 [KM-5-30] : ____
OUT: 5.22

IN: Entry O=C1NC(=O)c2c(NCCCc3cc(F)ccc3O)cccc21 [JAG-5-6] please
OUT: 6.37

IN: Entry O=C1NC(=O)c2c(NCCCc3cc(O)cc(Cl)c3)cccc21 [KM-5-66] please
OUT: 6.46

IN: Entry O=C1NC(=O)c2c(NCc3cc(O)cc(Cl)c3)cccc21 [KM-5-50] please
OUT: 4.96

IN: Entry O=C1NC(=O)c2c(NCc3c(O)cccc3Cl)cccc21 [KM-5-29] please
OUT: 5.22

IN: Entry O=C1NC(=O)c2c(NCc3cc(F)ccc3O)cccc21 [JAG-5-7] please
OUT: 5.15

IN: Entry O=C1NC(=O)c2c(NCc3cccc(O)c3)cccc21 [Analog 12] please
OUT: 4.68

IN: Entry O=C1NC(=O)c2c(NCCCc3cccc(O)c3)cccc21 [Analog 16] please
OUT: 5.82

IN: Entry O=C1NC(=O)c2c(NCCCc3cc(Cl)ccc3O)cccc21 [KM-5-54] please
OUT: 6.66

IN: Entry O=C1NC(=O)c2c(NCc3cc(Cl)ccc3O)cccc21 [KM-5-25] please
OUT: 5.40

IN: Entry O=C1NC(=O)c2c(NCCCc3cc(O)cc(O)c3)cccc21 [KM-5-57] please
OUT: 5.60

IN: Entry O=C1NC(=O)c2c(NCCCc3ccccc3O)cccc21 [KM-5-28] please
OUT: 5.85
